target: Fatty-acid amide hydrolase 1 (Homo sapiens); assay: Inhibitory concentration of fatty acid amide hydrolase using FP-Rh radioligand
Sequence (O00519 whole entry): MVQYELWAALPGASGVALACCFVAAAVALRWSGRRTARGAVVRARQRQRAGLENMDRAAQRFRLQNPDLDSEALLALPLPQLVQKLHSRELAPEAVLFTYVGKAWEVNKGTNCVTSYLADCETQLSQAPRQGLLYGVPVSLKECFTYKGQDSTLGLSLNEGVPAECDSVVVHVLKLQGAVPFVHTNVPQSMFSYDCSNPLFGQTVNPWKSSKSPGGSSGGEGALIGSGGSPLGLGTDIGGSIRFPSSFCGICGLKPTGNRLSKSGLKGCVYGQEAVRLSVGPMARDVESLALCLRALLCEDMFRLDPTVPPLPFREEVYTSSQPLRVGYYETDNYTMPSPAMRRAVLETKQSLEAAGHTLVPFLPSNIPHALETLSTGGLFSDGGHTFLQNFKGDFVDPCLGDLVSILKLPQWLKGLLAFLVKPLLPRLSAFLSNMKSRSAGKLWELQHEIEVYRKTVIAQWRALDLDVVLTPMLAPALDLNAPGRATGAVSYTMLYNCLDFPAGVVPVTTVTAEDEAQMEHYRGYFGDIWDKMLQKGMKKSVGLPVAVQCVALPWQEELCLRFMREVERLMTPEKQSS
Provide the reported IC50 of each item.
# number only, unit nM dropped from output

I have this molecule here, CCCCCCCC/C=C\CCCCCCCC(=O)c1nc2ncccc2o1 , and I need its recorded IC50. 40

Name the recorded IC50 for CCCCCCCC/C=C\CCCCCCCC(=O)c1ncc(-c2ccccc2)o1 . 5000

Quick one: IC50 for O=C(CCCCCCCc1ccccc1)C(F)(F)F ? 2000

* * *

assay: Concentration of 50% inhibition of KIAA1363 was determined using FP-Rh as radioligand
ASSAY METRIC: pIC50
Note: pIC50 values are expressed as the negative base-10 logarithm of concentration in M.

Entry O=C(CCCCCCc1ccccc1)c1nnc(-c2ccccn2)o1 has what pIC50? 4.05

Tell me the measured pIC50 of O=C(CCCCCc1ccccc1)C(F)(F)F , please. 6.10

Please give the measured pIC50 for this molecule: O=C(CCCCCc1ccccc1)c1nnc(-c2ccccn2)o1 4.30

Return reported pIC50; argument: CCCCCCCCCC(=O)C(F)(F)F 6.40

# input molecule: O=C(CCCCCCCc1ccccc1)c1nc2ncccc2o1 ; wanted: its pIC50 4.70

Value lookup for pIC50; key = O=C(CCCCCc1ccccc1)c1nc2ncccc2o1 5.00

Recorded pIC50 for CCCCCCCC/C=C/CCCCCCCC(=O)C(F)(F)F , please? 6.00

Given the entry O=C(CCCCCCCCc1ccccc1)c1nc2ncccc2o1 , report its measured pIC50. 5.00

GET /values?readout=pIC50&item= CCCCCCCC(=O)C(F)(F)F 5.82

If you can, please state the reported pIC50 value of CCCCCCCCCCCC(=O)C(F)(F)F . 6.30

What pIC50 value was documented for this molecule, O=C(CCCCCCc1ccccc1)C(F)(F)F ? 6.70

* * *

assay: Concentration of 50% inhibition of KIAA1363 was determined using FP-Rh as radioligand
pIC50: −log10 of the molar value.
ASSAY METRIC: pIC50

Using the record for O=C(CCCCCCc1ccccc1)c1ncc(-c2ccccn2)o1 , report its pIC50. < 4.00

Name the recorded pIC50 for O=C(CCCCCCCCc1ccccc1)c1ncc(-c2ccccn2)o1 . < 4.00

Please look up its pIC50: O=C(CCCCCc1ccccc1)c1nc2ccccc2o1 < 4.00

For the molecule shown here, CCCCCCCC/C=C\CCCCCCCC(=O)c1ncco1 , give the reported pIC50. < 4.00

What measured pIC50 goes with O=C(CCCCCCc1ccccc1)c1nnc(-c2ccncc2)o1 ? < 4.00

For the molecule O=C(CCCCCCc1ccccc1)c1nnc(-c2cccnc2)o1 , what pIC50 is on record? < 4.00

Return reported pIC50; argument: CCCCCCCC/C=C\CCCCCCCC(=O)c1ncc(-c2ccccn2)o1 < 4.00

Fill in: pIC50 of CCCCCCCC/C=C\CCCCCCCC(=O)c1nnc(-c2ccccn2)o1 is ___ < 4.00

Form field: reported pIC50 of CCCCCCCC/C=C\CCCCCCCC(=O)c1nnc(-c2ccccc2)o1 < 4.00

So what does the record say about pIC50 for O=C(CCCCCc1ccccc1)c1ncc(-c2ccccn2)o1 ? < 4.00

Query: pIC50; subject: O=C(CCCCCCCc1ccccc1)c1ncc(-c2ccccn2)o1 < 4.00
